Sourced from ChEMBL document CHEMBL3817819

- testedTarget: Gamma-butyrobetaine dioxygenase (Pseudomonas sp. (strain AK-1)) (UniProt P80193)
- Sequence (P80193 whole entry): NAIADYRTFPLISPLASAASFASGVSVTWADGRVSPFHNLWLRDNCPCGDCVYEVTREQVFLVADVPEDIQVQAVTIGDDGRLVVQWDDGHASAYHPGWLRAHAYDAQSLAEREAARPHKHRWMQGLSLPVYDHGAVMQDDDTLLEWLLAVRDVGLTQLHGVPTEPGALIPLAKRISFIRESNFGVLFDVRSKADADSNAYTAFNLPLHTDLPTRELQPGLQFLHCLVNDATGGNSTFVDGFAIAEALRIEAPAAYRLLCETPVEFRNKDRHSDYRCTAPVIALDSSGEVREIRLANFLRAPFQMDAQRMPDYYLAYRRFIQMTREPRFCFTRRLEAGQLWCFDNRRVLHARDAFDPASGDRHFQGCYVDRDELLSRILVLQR
- protocol: Inhibition of GBB binding to Pseudomonas sp. AK1 BBOX at 25 uM in presence of Mn2+ by 1H NMR GBB/2OG dual reporter displacement assay
Active and inactive are the calls of the source. The calls are words filed in the database; no cut-off is given here.
reportedProperty: inhibition

Some solved cases for reference:
- substanceSmiles: "O=C(N[C@@H](Cc1ccccc1)C(=O)O)c1nc(Cl)c2ccccc2c1O"
  inhibition: "Active"
- substanceSmiles: "O=C(N[C@@H](Cc1c[nH]c2ccccc12)C(=O)O)c1nc(Cl)c2ccccc2c1O"
  inhibition: "Active"
- substanceSmiles: "CC(C)[C@@H](NC(=O)c1nc(Cl)c2ccccc2c1O)C(=O)O"
  inhibition: "inactive"
- substanceSmiles: "CC(C)C[C@H](NC(=O)c1nc(Cl)c2ccccc2c1O)C(=O)O"
  inhibition: "Active"

Which inhibition reading was recorded for the compound `O=C(O)CC[C@@H](NC(=O)c1nc(Cl)c2ccccc2c1O)C(=O)O` ?
inactive
